# System: 556581-035-R-J1-PDC complex spheroid growth
# protocolText: Anticancer human tumor 556581-035-R-J1-PDC patient-derived ovarian carcinoma cell line growth inhibition [AhR]
# setupConditions: second compound 0.316 µM; first compound 3.16 µM; active compounds read low
measuredEndpoint: viability, T/C (%)
Report the figure in % without appending any unit label.

// fetch viability, T/C for CC1(C)CCC(CN2CCN(c3ccc(C(=O)NS(=O)(=O)c4ccc(NCC5CCOCC5)c([N+](=O)[O-])c4)c(Oc4cnc5[nH]ccc5c4)c3)CC2)=C(c2ccc(Cl)cc2)C1 + Cc1ccccc1N=Nc1ccc(NC(=O)c2ccnn2C)c(C)c1 ; system: 556581-035-R-J1-PDC complex spheroid growth
108

// fetch viability, T/C for NS(=O)(=O)OCC1CC(n2ccc3c(NC4CCc5ccccc54)ncnc32)CC1O (configuration not stated) + Cc1ccccc1N=Nc1ccc(NC(=O)c2ccnn2C)c(C)c1 ; system: 556581-035-R-J1-PDC complex spheroid growth
93.9

// fetch viability, T/C for CC1COCCN1c1cc(C2(S(C)(=N)=O)CC2)nc(-c2ccnc3[nH]ccc23)n1 (configuration not stated) + CC(CO)NC(=O)c1cc(-c2ccc(Cl)cc2)nn(-c2cnn(C)c2)c1=O ; system: 556581-035-R-J1-PDC complex spheroid growth
81.4

// fetch viability, T/C for COc1ccc([C@@H](O)c2cc(-c3ncnc4cc(N5CCOCC5)ccc34)c(F)cc2Cl)nn1 + CC(CO)NC(=O)c1cc(-c2ccc(Cl)cc2)nn(-c2cnn(C)c2)c1=O ; system: 556581-035-R-J1-PDC complex spheroid growth
58.7

// fetch viability, T/C for Nc1ccn(C2OC(CO)C(O)C2(F)F)c(=O)n1 (configuration not stated) + CC(CO)NC(=O)c1cc(-c2ccc(Cl)cc2)nn(-c2cnn(C)c2)c1=O ; system: 556581-035-R-J1-PDC complex spheroid growth
32

// fetch viability, T/C for O=C(c1cc(Cc2n[nH]c(=O)c3ccccc23)ccc1F)N1CCN(C(=O)C2CC2)CC1 + Cc1ccccc1N=Nc1ccc(NC(=O)c2ccnn2C)c(C)c1 ; system: 556581-035-R-J1-PDC complex spheroid growth
87.8

// fetch viability, T/C for NS(=O)(=O)OCC1CC(n2ccc3c(NC4CCc5ccccc54)ncnc32)CC1O (configuration not stated) + CC(CO)NC(=O)c1cc(-c2ccc(Cl)cc2)nn(-c2cnn(C)c2)c1=O ; system: 556581-035-R-J1-PDC complex spheroid growth
109

// fetch viability, T/C for O=C(C=Cc1cccc(S(=O)(=O)Nc2ccccc2)c1)NO + Cc1ccccc1N=Nc1ccc(NC(=O)c2ccnn2C)c(C)c1 ; system: 556581-035-R-J1-PDC complex spheroid growth
24.9

// fetch viability, T/C for O=C(c1cc(Cc2n[nH]c(=O)c3ccccc23)ccc1F)N1CCN(C(=O)C2CC2)CC1 + Cc1cncc(-c2nc(NCCc3c[nH]c4ccccc34)c3ncn(C(C)C)c3n2)c1 ; system: 556581-035-R-J1-PDC complex spheroid growth
91.9

// fetch viability, T/C for Nc1ccn(C2OC(CO)C(O)C2(F)F)c(=O)n1 (configuration not stated) + Cc1cncc(-c2nc(NCCc3c[nH]c4ccccc34)c3ncn(C(C)C)c3n2)c1 ; system: 556581-035-R-J1-PDC complex spheroid growth
29.2

// fetch viability, T/C for COc1ccc([C@@H](O)c2cc(-c3ncnc4cc(N5CCOCC5)ccc34)c(F)cc2Cl)nn1 + Cc1ccccc1N=Nc1ccc(NC(=O)c2ccnn2C)c(C)c1 ; system: 556581-035-R-J1-PDC complex spheroid growth
55.8

// fetch viability, T/C for NS(=O)(=O)OCC1CC(n2ccc3c(NC4CCc5ccccc54)ncnc32)CC1O (configuration not stated) + Cc1cncc(-c2nc(NCCc3c[nH]c4ccccc34)c3ncn(C(C)C)c3n2)c1 ; system: 556581-035-R-J1-PDC complex spheroid growth
72.7

====

I'd be grateful if you could share measured viability, T/C for these entries.
# Tested on: 556581-035-R-J1-PDC complex spheroid growth
# protocolText: Anticancer human tumor 556581-035-R-J1-PDC cell line growth inhibition [AhR];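 further: compound exposure lasted 7 days; 100% = DMSO vehicle control growth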
# setupConditions: second compound 0.1 µM; first compound 0.1 µM; active compounds read low
Report the figure in % without appending any unit label.

Output measured viability, T/C for this item: COc1cc(Nc2ncc3c(n2)-c2ccc(Cl)cc2C(c2c(F)cccc2OC)=NC3)ccc1C(=O)O + Cc1cncc(-c2nc(NCCc3c[nH]c4ccccc34)c3ncn(C(C)C)c3n2)c1
83.4

Output measured viability, T/C for this item: CC1COCCN1c1cc(-c2ccnn2C)c2ccnc(-c3ccn[nH]3)c2n1 (stereo not drawn) + Cc1ccccc1N=Nc1ccc(NC(=O)c2ccnn2C)c(C)c1
84.8

Output measured viability, T/C for this item: Nc1ncn(C2CC(O)C(CO)O2)c(=O)n1 (stereo not drawn) + CC(CO)NC(=O)c1cc(-c2ccc(Cl)cc2)nn(-c2cnn(C)c2)c1=O
77.1

Output measured viability, T/C for this item: COc1cc(C2c3cc4c(cc3C(OC3OC5COC(C)OC5C(O)C3O)C3COC(=O)C23)OCO4)cc(OC)c1O (stereo not drawn) + Cc1ccccc1N=Nc1ccc(NC(=O)c2ccnn2C)c(C)c1
101

Output measured viability, T/C for this item: COc1cccc2c1C(=O)c1c(O)c3c(c(O)c1C2=O)CC(O)(C(=O)CO)CC3OC1CC(N)C(O)C(C)O1 (stereo not drawn) + Cc1cncc(-c2nc(NCCc3c[nH]c4ccccc34)c3ncn(C(C)C)c3n2)c1
89.8

Output measured viability, T/C for this item: Nc1ccn(C2OC(CO)C(O)C2(F)F)c(=O)n1 (stereo not drawn) + CC(CO)NC(=O)c1cc(-c2ccc(Cl)cc2)nn(-c2cnn(C)c2)c1=O
40.3

Output measured viability, T/C for this item: CC(C)c1c(-c2ccccc2)nc2c(C#N)c[nH]n2c1=O + Cc1cncc(-c2nc(NCCc3c[nH]c4ccccc34)c3ncn(C(C)C)c3n2)c1
106

Output measured viability, T/C for this item: COc1cc(Nc2ncc3c(n2)-c2ccc(Cl)cc2C(c2c(F)cccc2OC)=NC3)ccc1C(=O)O + CC(CO)NC(=O)c1cc(-c2ccc(Cl)cc2)nn(-c2cnn(C)c2)c1=O
70.6

Output measured viability, T/C for this item: CC1(C)CCC(CN2CCN(c3ccc(C(=O)NS(=O)(=O)c4ccc(NCC5CCOCC5)c([N+](=O)[O-])c4)c(Oc4cnc5[nH]ccc5c4)c3)CC2)=C(c2ccc(Cl)cc2)C1 + Cc1ccccc1N=Nc1ccc(NC(=O)c2ccnn2C)c(C)c1
108

Output measured viability, T/C for this item: Nc1ccn(C2OC(CO)C(O)C2(F)F)c(=O)n1 (stereo not drawn) + Cc1ccccc1N=Nc1ccc(NC(=O)c2ccnn2C)c(C)c1
41.6

Output measured viability, T/C for this item: CC1COCCN1c1cc(C2(S(C)(=N)=O)CC2)nc(-c2ccnc3[nH]ccc23)n1 (stereo not drawn) + Cc1ccccc1N=Nc1ccc(NC(=O)c2ccnn2C)c(C)c1
99.5

Output measured viability, T/C for this item: Cn1ncnc1C1c2n[nH]c(=O)c3cc(F)cc(c23)NC1c1ccc(F)cc1 (stereo not drawn) + CC(CO)NC(=O)c1cc(-c2ccc(Cl)cc2)nn(-c2cnn(C)c2)c1=O
99.7

Output measured viability, T/C for this item: CC(C)c1c(-c2ccccc2)nc2c(C#N)c[nH]n2c1=O + Cc1ccccc1N=Nc1ccc(NC(=O)c2ccnn2C)c(C)c1
111

====

# System: 556581-035-R-J1-PDC complex spheroid growth
# protocolText: Anticancer human tumor 556581-035-R-J1-PDC cell line growth inhibition [AhR];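 further: compound exposure lasted 7 days; 100% = DMSO vehicle control growth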
# setupConditions: second compound 0.1 µM; first compound 0.003 µM; active compounds read low
# Excerpt: Multicellular complex tumor spheroid response to aryl hydrocarbon receptor antagonists in combination with a variety of drugs and investigational agents in selected tumor cell lines […] Compounds. […] If the clinical Cmax for an agent had not been determined, the highest concentration tested was 10 microM (Table 1). […]
I'd be grateful if you could share measured viability, T/C for these entries.
Report the figure in % without appending any unit label.

// fetch viability, T/C for CCc1c2c(nc3ccc(O)cc13)-c1cc3c(c(=O)n1C2)COC(=O)[C@]3(O)CC + Cc1ccccc1N=Nc1ccc(NC(=O)c2ccnn2C)c(C)c1 ; system: 556581-035-R-J1-PDC complex spheroid growth
87.2

// fetch viability, T/C for CC(C)CC(NC(=O)C(Cc1ccccc1)NC(=O)c1cnccn1)B(O)O (centres undefined) + CC(CO)NC(=O)c1cc(-c2ccc(Cl)cc2)nn(-c2cnn(C)c2)c1=O ; system: 556581-035-R-J1-PDC complex spheroid growth
88.4

// fetch viability, T/C for CCc1c2c(nc3ccc(O)cc13)-c1cc3c(c(=O)n1C2)COC(=O)[C@]3(O)CC + CC(CO)NC(=O)c1cc(-c2ccc(Cl)cc2)nn(-c2cnn(C)c2)c1=O ; system: 556581-035-R-J1-PDC complex spheroid growth
73.5

// fetch viability, T/C for CCc1c2c(nc3ccc(O)cc13)-c1cc3c(c(=O)n1C2)COC(=O)[C@]3(O)CC + Cc1cncc(-c2nc(NCCc3c[nH]c4ccccc34)c3ncn(C(C)C)c3n2)c1 ; system: 556581-035-R-J1-PDC complex spheroid growth
86.4

// fetch viability, T/C for Nc1ncn(C2CC(O)C(CO)S2)c(=O)n1 (centres undefined) + Cc1ccccc1N=Nc1ccc(NC(=O)c2ccnn2C)c(C)c1 ; system: 556581-035-R-J1-PDC complex spheroid growth
106

// fetch viability, T/C for Nc1ncn(C2CC(O)C(CO)S2)c(=O)n1 (centres undefined) + CC(CO)NC(=O)c1cc(-c2ccc(Cl)cc2)nn(-c2cnn(C)c2)c1=O ; system: 556581-035-R-J1-PDC complex spheroid growth
117

// fetch viability, T/C for Nc1ncn(C2CC(O)C(CO)S2)c(=O)n1 (centres undefined) + Cc1cncc(-c2nc(NCCc3c[nH]c4ccccc34)c3ncn(C(C)C)c3n2)c1 ; system: 556581-035-R-J1-PDC complex spheroid growth
102

// fetch viability, T/C for CC(C)CC(NC(=O)C(Cc1ccccc1)NC(=O)c1cnccn1)B(O)O (centres undefined) + Cc1cncc(-c2nc(NCCc3c[nH]c4ccccc34)c3ncn(C(C)C)c3n2)c1 ; system: 556581-035-R-J1-PDC complex spheroid growth
103

// fetch viability, T/C for CC(C)CC(NC(=O)C(Cc1ccccc1)NC(=O)c1cnccn1)B(O)O (centres undefined) + Cc1ccccc1N=Nc1ccc(NC(=O)c2ccnn2C)c(C)c1 ; system: 556581-035-R-J1-PDC complex spheroid growth
117
